The reported measurements were obtained from patent US10682359B2.

The following molecules are listed with their measured viability at 80 µM values.
tested on: T. cruzi infective form (amastigotes and trypomastigotes) (Tulahuen strain) in NIH-3T3 fibroblasts; assay: T. cruzi viability assay in NIH-3T3 fibroblasts; settings: Trypanosoma cruzi, TULAHUEN, NIH3T3

Recorded results for 3 molecules are shown here.
[
  {
    "molecule": "O=C1NC(=O)C(=Cc2ccc(N3CCOCC3)cc2)C(=O)N1",
    "viability at 80 µM": "88%"
  },
  {
    "molecule": "COc1ccc(NS(=O)(=O)c2ccc(Cl)c(C)c2Cl)cc1",
    "viability at 80 µM": "0%"
  },
  {
    "molecule": "O=C1NC(=O)C(=Cc2ccc(O)c(O)c2)C(=O)N1",
    "viability at 80 µM": "62.8%"
  }
]

[ask] Fill in reported viability at 80 µM for this entry: CCOc1ccc([C@@H]2Oc3ccccc3C=C2[N+](=O)[O-])cc1OCC
[reply] 0%

[ask] Fill in reported viability at 80 µM for this entry: CCOc1ccc([C@@H]2Oc3ccc(Br)cc3C=C2[N+](=O)[O-])cc1OC
[reply] 0%

[ask] Fill in reported viability at 80 µM for this entry: Cc1ccc(-n2nc(C)c3c2OC(N)=C(C#N)[C@H]3c2ccoc2)cc1
[reply] 80.6%

----------
tested on: T. cruzi infective form (amastigotes and trypomastigotes) (Tulahuen strain) in NIH-3T3 fibroblasts; assay: T. cruzi viability assay in NIH-3T3 fibroblasts; conditions: Trypanosoma cruzi, TULAHUEN, NIH3T3
The following compounds are listed with their measured viability at 80 µM values.
Response body: numeric value in %, unit text excluded.

[ask] Fill in reported viability at 80 µM for this entry: COc1ccc(S(=O)(=O)Nc2cccc(Br)c2)c(Cl)c1Cl [Compound 1a]
[reply] 0

[ask] Fill in reported viability at 80 µM for this entry: Cc1cc2c(c(O)c1-c1c(C)cc3c(c1O)/C(=C/Nc1cccc4c(N)cccc14)C(=O)C(O)=C3C(C)C)/C(=C/Nc1cccc3c(N)cccc13)C(=O)C(O)=C2C(C)C [Compound 6b]
[reply] 1.7

----------
test system: T. cruzi infective form (amastigotes and trypomastigotes) (Tulahuen strain) in NIH-3T3 fibroblasts; experiment: T. cruzi viability assay in NIH-3T3 fibroblasts; details: Trypanosoma cruzi, TULAHUEN, NIH3T3
The following compounds are listed with their measured viability at 80 µM values.
Response body: numeric value in %, unit text excluded.

Recorded results for 3 compounds are shown here.
[
  {
    "compound": "COc1ccc(S(=O)(=O)Nc2ccc3ccccc3c2)cc1Cl [Compound 1f]",
    "viability at 80 µM / %": 0
  },
  {
    "compound": "c1ccc([C@@H]2CCCN2)nc1 [Compound 7]",
    "viability at 80 µM / %": 84.3
  },
  {
    "compound": "COc1ccc(S(=O)(=O)Nc2cccc(SC)c2)cc1F [Compound 1b]",
    "viability at 80 µM / %": 0
  }
]

[ask] Fill in reported viability at 80 µM for this entry: Cc1cc2c(c(O)c1-c1c(C)cc3c(c1O)/C(=C/Nc1c(O)cc(S(=O)(=O)O)c4ccccc14)C(=O)C(O)=C3C(C)C)/C(=C/Nc1c(O)ccc3c(S(=O)(=O)O)cccc13)C(=O)C(O)=C2C(C)C [Compound 6c]
[reply] 20.4

[ask] Fill in reported viability at 80 µM for this entry: COc1ccc(S(=O)(=O)Nc2cc(Cl)ccc2Cl)c(C)c1C [Compound 1k]
[reply] 0

[ask] Fill in reported viability at 80 µM for this entry: Cc1cc2c(c(O)c1-c1c(C)cc3c(c1O)C(=CNc1ccc(S(=O)(=O)NC(=N)N)cc1)C(=O)C(O)=C3C(C)C)C(=CNc1ccc(S(=O)(=O)NC(=N)N)cc1)C(=O)C(O)=C2C(C)C [Compound 6a]
[reply] 0

[ask] Fill in reported viability at 80 µM for this entry: Cc1nn(-c2cccc(Cl)c2)c2c1[C@@H](c1cc([N+](=O)[O-])ccc1Cl)C(C#N)=C(N)O2 [Compound 5d]
[reply] 0

[ask] Fill in reported viability at 80 µM for this entry: O=C(O)C1Nc2c(I)cccc2C2C=CCC12 (centres unmarked) [Compound 8]
[reply] 44.3

[ask] Fill in reported viability at 80 µM for this entry: COc1ccc(Br)cc1/C=C1/C(=O)NC(=O)N(CCC2=CCCCC2)C1=O [Compound 2d]
[reply] 88.7

[ask] Fill in reported viability at 80 µM for this entry: O=C1NC(=O)C(=Cc2ccc3c(c2)OCO3)C(=O)N1 [Compound 2h]
[reply] 81.2

[ask] Fill in reported viability at 80 µM for this entry: Cc1nn(-c2ccccc2)c2c1[C@@H](c1ccc(F)cc1)C(C#N)=C(N)O2 [Compound 5b]
[reply] 87.1
